# protocol text: folding stability dG unfold from chymotrypsin proteolysis; higher = more stable
Entries annotated with measured folding stability dG unfold
Hi! Could you send only the number? It should be in kcal/mol, unit omitted.

sequence_input="SKKIKLSEEMKEAIKEAVKKAKPGEKVEITIKLKDGSIIKIEIYPDGTIKISVFDKNGKKIKEFEIKIKPSA [r9_132_TrROS_Hall]" unit_spec=kcal/mol measured_result=2.59
sequence_input="SAGGSAGGSAKENEKISIGPEITETGLDILEIKVDTNTKVVTIRFANKIYRIDKNGNISIVSSAGGSAGGSA [r18_445_TrMRF]" unit_spec=kcal/mol measured_result=2.51
sequence_input="SAGGSAGGSAGGMSPGSSSTTVTTTTSPNGTVVTTTTTTTLDPNSNTTSSTTTTTTTTTSAGGSAGGSAGGS [r10_1164_JUSTAS]" unit_spec=kcal/mol measured_result=1.74
sequence_input="SAGGMTIEKEDGKYRITITINGKTYTFTIPKELENKTEEEIAAELAAELAEKFGLKEITEIKIEKVPSAGGS [r8_402_TrROS_Hall]" unit_spec=kcal/mol measured_result=3.56
sequence_input="SAGGGQTIEIKFPVPNENYRVYLMVYDPDKPISVEPQRFDPPDGEVTDKIKLPPDVKIGFMAFPPEDMSAGG [r13_977_TrROS]" unit_spec=kcal/mol measured_result=0.966

// folding stability dG unfold value for SAGGSAGGSKGVKELVIVVPPDKPEKIEEFLKKLRDEYAKDIKVLEVKETPDGGYIAKIKITDSAGGSAGGS [r12_91_TrMRF] : 1.96

###

# protocol text: folding stability dG unfold from chymotrypsin proteolysis; higher = more stable
Rule: 1 for folding stability dG unfold not less than 1 kcal/mol, -1 for anything less.

sequence_input="SAGGSAGGKPTYYVAEVTYPGNLKATVVVEDKDNLTFVIPDTGEVWDLTDLDDIKITPVSADDPSAGGSAGG [r6_222_TrMRF]" label_class=-1
sequence_input="SAGGSAKITLWIWMPPGNPDKMAEEIADYLAERHGWTVKIKDVQIERDPEDDQVWIPVKIEIQPPPSAGGSA [r15_70_TrROS]" label_class=1
sequence_input="SAGGWMTWEFELEDEDGKDIKIEVEQNPGNPWWRVKIEHKGGKPIPEIPIPADSPDDAIDQARDLLKSAGGS [r16_158_TrROS]" label_class=-1
sequence_input="GFEVTAEIEVYEDPESGAKVVKVTIPVKNGDPEVLEKAAKELAKKLFGPGAKFDPKIDPETGRVEVTGVLAS [r1_273_TrMRF]" label_class=1
sequence_input="SAGGSAGGSAGSVTVTFISLEEGERYLVLTELRFGDYGIESRSTRIEVSDEKLEELKKAFSAGGSAGGSAGG [r11_47_TrMRF]" label_class=1

Kindly determine if folding stability dG unfold recorded for SAGGIDLDDLPPGDIFIFIKIKMEPVKVDDPDGKEYNRMEIEIFIFRFDPPNGKIQFEPIPMEFYIRSAGGS [r8_486_TrROS] is above or exactly 1 kcal/mol.
1

Determine whether measured folding stability dG unfold meets or exceeds 1 kcal/mol for SPSADAKVRVEPLPGPGYLATLEDGSLVLVHPDGTVIEVTETKVRIRVFTPDKPLLELEIEIPPPAPDEPSA [r9_901_TrMRF]
1

###

# protocol text: folding stability dG unfold (combined trypsin and chymotrypsin); higher = more stable
Entry flag: Yes if folding stability dG unfold reaches 2 kcal/mol; No if it does not.

Recorded results for 6 sequences are shown here.
sequence_input="SAGGSAGGSAGGAMPSDVLSTTTEPVAPTGSKTVSAPDAVVTVTLDPNTPVATTKTYGVSAGGSAGGSAGGS [r10_965_JUSTAS]" label_class=No
sequence_input="SAGMTYTEKVFTSEVTLPEIGAKITITTTVKTPPSGETEPTVEVTFDLPETASEEVVKAVLEELNIPVESAG [r5_486_JUSTAS]" label_class=No
sequence_input="SAGGSAGGSAGGSGLYLRLFDPGTGNVVAEVRVEIAPDGSLIAEARVADVPPVEDPEKASAGGSAGGSAGGS [r4_178_TrMRF]" label_class=No
sequence_input="SAGGSAGGSAGGGMTVLSFTMPKEEVEKYFEEKGLDATEMTISPGPGDTYSVTVLDPGSSAGGSAGGSAGGS [r10_999_JUSTAS]" label_class=No
sequence_input="SAGGSGKVIEIPIELPEDKTITLRLDPETGKAVVEAEENVPLEKVIEAAKKIFEENGFELNGLDISSAGGSA [r2_497_TrMRF]" label_class=No
sequence_input="SAGGSAGGSMNVSPEELEALARERIEALLAENPDVPRDDVVLEFEGRSESPGKVITLTLRVRASAGGSAGGS [r12_707_JUSTAS]" label_class=No

Item SAGGENYTFEMEITIPIPLPNPNGKLKKLPIKVPIEYEYDDPAQRNQAMQNMIMRIIDLALKELGVPSAGGS [r16_339_TrROS] with folding stability dG unfold of 2 kcal/mol or above?
No

Determine whether measured folding stability dG unfold meets or exceeds 2 kcal/mol for STIMIMFRSPEDLEKFLNEAKEMIRNGKNVPITIMAHGPNGRYWMFTIDIKMDPDGNPKIEIEWEPVPPDSA [r9_1023_TrROS]
Yes

Please indicate if the recorded folding stability dG unfold for SAGGSAGGSAAPVSEREVTLTGSGTPRVVPVRVLGEAASPSESIATEATLPDGRPLRLTLRESAGGSAGGSA [r18_54_JUSTAS] meets or exceeds 2 kcal/mol.
No

Does SAGGSAGGMKTFTIDELKKLAEELGAEIYYDKDTNTIYIRTPGKIFRITINDDGTVTIEELPPKSAGGSAGG [r6_155_TrROS_Hall] have a reported folding stability dG unfold of at least 2 kcal/mol?
Yes

Please tell me: is the sequence KKIHIMFNNPQHVRRIAKKLGPNVKPDDVKKNPNGYYYFEIDLPNGRPIDIHIPSENMPAEDIVDYALEMLS [r1_279_TrROS] at or over 2 kcal/mol in terms of folding stability dG unfold?
No

Does folding stability dG unfold meet or surpass 2 kcal/mol for SAGGSAGGSKIKIYPYSTKGKNEVYYLIETENNYLYIKVTIYYDPKTGKPVKIEIKEIFTLPKSAGGSAGGS [r12_70_TrMRF] ?
Yes

Could you please find out whether SAGGSARVIRNPDYGMWIRLQPTDGGYTVQIEMYRPDPEDGKPKRRPMTHTIPPDDLPPEIRDLLKSAGGSA [r15_703_TrROS] has folding stability dG unfold that meets 2 kcal/mol or exceeds it?
No

###

# protocol text: folding stability dG unfold (combined trypsin and chymotrypsin); higher = more stable
Each entry below carries its reported folding stability dG unfold.
Note: unit kcal/mol is implicit; provide only the numeric part.

Before answering, review these 3 worked examples.
sequence_input="SAGGSAGGAERIKNLLEDYGFELKDVEMDEPGSTKIHITPDNPSLRKDIKDKLPPGNVDSITDTSAGGSAGG [r6_84_TrROS]" readout_type="folding stability dG unfold" measured_result=0.882
sequence_input="SAGGSAMVVPVASEEEARAVAEEAAARGEPVVIAFPGGRALVVETAAAPTPEPVLRVEEREVPPLLSAGGSA [r15_761_JUSTAS]" readout_type="folding stability dG unfold" measured_result=0.216
sequence_input="SALPNLKIEITLNEDGTITITVTANGEVIATATLTVTLPPPPVEKEVLDANGNKRTVRYDAKTGKAEVFDSA [r9_343_TrROS_Hall]" readout_type="folding stability dG unfold" measured_result=0.0728

From here, focus on the item given below.
Input SAGGSAGGSAGGEPELVFKVRVRTKDGRELEIEVSAEDLEKLLEALPDIEEVEIEEVEPSAGGSAGGSAGGS [r10_437_TrROS_Hall] . Output folding stability dG unfold: 2.6

###

folding stability dG unfold values by entry
# protocol text: folding stability dG unfold from trypsin proteolysis; higher = more stable
Report the value in kcal/mol with no unit label.

// known answers, use as guide
sequence_input="SAGGSAGGSAGMKLPEGWEIVAVYRDKETNKLYLIVRDTKTKKLLIVDLDTKKIISAEELSAGGSAGGSAGG [r11_268_TrROS_Hall]" readout_type="folding stability dG unfold" measured_result=3.63
sequence_input="SAGGSAGGSAGGSTRDFLVKDPSNGQWYKVTATTDPAGAVTITFPETGEVVPLEGLVVSPSAGGSAGGSAGG [r11_301_JUSTAS]" readout_type="folding stability dG unfold" measured_result=1.47
sequence_input="SAGGSAGGSAGGKKVILIRGLTPEEIEALAKELEELFPDLKVTIERLPGEEGTLLITVDSAGGSAGGSAGGS [r10_852_TrROS_Hall]" readout_type="folding stability dG unfold" measured_result=2.92
sequence_input="SASPWIQKLAEEIADELAKENGWEEVKFTVTLPIRMPMYRYDPNGKKEPHDMWMWIKFEVTARVPPGDPSAG [r14_232_TrROS]" readout_type="folding stability dG unfold" measured_result=2.28
sequence_input="SAGGMMTPVSEETLPDGSKVLVEENPATGERTVTTLNPATGTVTTETLKRVPGENAWTLLSKTTTPAPSAGG [r19_249_JUSTAS]" readout_type="folding stability dG unfold" measured_result=2.03

The sequence listed as SAGGSAGGMYTVIEEEFTFPPSNPDVVIEVEYPDLPDSYTITQSTFPEGDTYHVRVTITVPPNLSAGGSAGG [r6_482_JUSTAS] has a reported folding stability dG unfold of 0.314

Reported folding stability dG unfold ( MKIKEVKVFPLPGENTIVILVTGEFDSFYIPETGKPIPSSAKITLIEVIKVPEDSDEAEVESSLLILPDAES [r1_147_TrMRF] ) = 1.08

SAGGSAGGSAEEEEMPVEELVRRKAREVEEAFPGLRGERRITVTVTLPEGETWTAELVLPLSAGGSAGGSAG [r3_64_TrMRF] yielded folding stability dG unfold of 0.19
